Molecular target: pancreatic lipase (Rattus norvegicus, UniProt P27657)
Construct: stimulated to release pancreatic proteins by addition of 10^-5 M carbachol; released pancreatic juice, centrifuged
Sequence (P27657 17-465): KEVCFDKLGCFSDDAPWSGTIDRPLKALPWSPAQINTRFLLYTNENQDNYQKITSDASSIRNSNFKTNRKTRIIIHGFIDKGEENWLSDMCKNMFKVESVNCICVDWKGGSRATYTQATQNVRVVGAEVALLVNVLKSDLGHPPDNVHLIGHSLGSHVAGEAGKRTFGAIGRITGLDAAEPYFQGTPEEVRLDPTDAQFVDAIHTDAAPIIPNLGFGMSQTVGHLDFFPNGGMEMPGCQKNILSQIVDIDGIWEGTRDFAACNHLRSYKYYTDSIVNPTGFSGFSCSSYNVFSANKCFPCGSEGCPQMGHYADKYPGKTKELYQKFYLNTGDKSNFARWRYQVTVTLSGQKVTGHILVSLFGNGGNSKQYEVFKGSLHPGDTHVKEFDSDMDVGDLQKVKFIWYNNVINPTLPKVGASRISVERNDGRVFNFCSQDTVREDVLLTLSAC
Assay: In vitro pancreatic lipase screen ([14C]-triolein assay)
Settings: read-out: Pancreatic Lipase Activity I50
From the text: The method for assaying pacreatic lipase in vitro using [^14 C]-triolein was based on the method of Garfinkel and Schotz for lipoprotein lipase, [A. S. Garfinkel and M. C. Schotz (1972). […] The liberated free fatty acids were extracted into 0.1 M KOH and quantitated in a liquid scintillation counter using 2,5-bis-2-(5-tertbutylbenzoxazolyl)-tniophene (BBOT) scintillation fluid (Yorktown Research, South Hackensack, N.J.). […]
pIC50: −log10 of the molar value.
Parameter pIC50: see the listing below.

molecule: CO[C@H]1CC[C@H](O[C@@H]2C[C@@H]([C@@H](C)/C=C(\C)C(=O)[C@H](C)C[C@H](C)C(=O)O)O[C@@]3(CC[C@@](C)([C@H]4CC[C@@H](C)[C@@]5(O[C@@H]([C@H]6O[C@@](O)(CO)[C@H](C)C[C@@H]6C)C[C@@H]5C)O4)O3)[C@@H]2C)O[C@@H]1C [A-130A (Lenoremycin)]
pIC50: 3.82
//
molecule: CCC(C(=O)O)C1CCC(C)C(C(C)C(O)C(C)C(=O)C(CC)C2OC3(C=CCC4(CCC(C)(C5CCC(O)(CC)C(C)O5)O4)O3)C(C)CC2C)O1 (stereo not drawn) [Deoxy-(0-8)-epi-17-salinomycin]
pIC50: 3.22
//
molecule: C[C@H](CCC(=O)O)C[C@H](C)C[C@H](C)C(=O)/C=C(\O)[C@H](C)C[C@H](C)C/C=C/[C@@H](C)[C@@H](O)[C@@H](C)[C@@H](O)C[C@@H]1CC[C@@](C)([C@H]2CC[C@@](C)([C@@H](C)O)O2)O1 [Ionomycin]
pIC50: 3.02
//
molecule: CC[C@@H](C(=O)[C@@H](C)[C@@H](O)[C@H](C)CCc1ccc(C)c(OC(C)=O)c1C(=O)O)[C@H]1O[C@](CC)([C@H]2CC[C@](O)(CC)[C@H](C)O2)C[C@@H]1C [Lasalocid Acetate]
pIC50: 3.92
//
molecule: CCCCCCCCCCCCCCCCCC(=O)Oc1c(C)ccc(CC[C@@H](C)[C@H](O)[C@H](C)C(=O)[C@H](CC)[C@H]2O[C@](CC)([C@H]3CC[C@](O)(CC)[C@H](C)O3)C[C@@H]2C)c1C(=O)O [Lasalocid Stearate]
pIC50: 3.96
//
molecule: CCCCCC(=O)Oc1c(C)ccc(CC[C@@H](C)[C@H](O)[C@H](C)C(=O)[C@H](CC)[C@H]2O[C@](CC)([C@H]3CC[C@](O)(CC)[C@H](C)O3)C[C@@H]2C)c1C(=O)O [Lasalocid Hexanoate]
pIC50: 3.70
